# System: CCRIS mutagenicity, Ames/micronucleus/aberration tests
# measurement_protocol: CCRIS mutagenicity studies
# stated_conditions: Test System: AMES SALMONELLA TYPHIMURIUM; Strain/Indicator: TA97; Metabolic Activation: NONE; Method: PREINCUBATION
Activity calls are given as the source filed them. No rule for the calls is given here.
measurement_kind: mutagenic call

molecule=O=C(O)c1ccccc1C(=O)O measurement_target="CCRIS mutagenicity, Ames/micronucleus/aberration tests" measurement_kind="mutagenic call" observed_result="inactive; negative"
molecule="CN1C(CSCC(F)(F)F)Nc2cc(Cl)c(S(N)(=O)=O)cc2S1(=O)=O (stereo not drawn)" measurement_target="CCRIS mutagenicity, Ames/micronucleus/aberration tests" measurement_kind="mutagenic call" observed_result="inactive; negative"
molecule=CCOC(=O)CC(C)C measurement_target="CCRIS mutagenicity, Ames/micronucleus/aberration tests" measurement_kind="mutagenic call" observed_result="inactive; negative"
